# procedure-summary: Apparent permeability in RRCK cells from apical to basolateral side
# Format: ADME, cell-based, Canis lupus familiaris, MDCKII-LE
# condition-parameters: dog, MDCK
endpoint-name: Papp A→B (×10⁻⁶ cm/s)
Expressed in ×10⁻⁶ cm/s, but write only the number.

Record request: Papp A→B value, item COc1cc2c(OC[C@H]3NC(=O)[C@@H](F)[C@H]3C)nccc2cc1C(N)=O
9.9

Give the measured Papp A→B of CC[C@@H]1[C@H](F)C(=O)N[C@@H]1COc1nccc2cc(C(N)=O)c(OC)cc12 .
9.6

Papp A→B for COc1cc2c(OC[C@H]3NC(=O)[C@@]4(F)[C@@H]3[C@@H]4C)nccc2cc1C(N)=O ?
16.3

Fill blank: measured Papp A→B of the compound CC[C@H]1[C@@H](COc2nccc3cc(C(N)=O)c(OC)cc23)NC(=O)[C@@H]1F is ____.
14.2

Quick one: Papp A→B of CC(C)Oc1cc2c(OC[C@@H]3CCC(=O)N3)nccc2cc1C(N)=O ?
10.7

----------
# procedure-summary: Apparent permeability in RRCK cells from apical to basolateral side
# Assay type: ADME, cell-based, Canis lupus familiaris, MDCKII-LE
# condition-parameters: dog, MDCK
Exercise: for every item that follows, state its recorded Papp A→B.
# unit: ×10⁻⁶ cm/s | format: bare number

Consider the molecule CC[C@@H]1CC(=O)N[C@@H]1COc1nccc2cc(C(N)=O)c(OC)cc12 and give its measured Papp A→B.
17.9

Which Papp A→B value belongs to COc1cc2c(OC[C@H]3NC(=O)C[C@H]3C)nccc2cc1C(N)=O ?
10.5

For COc1cc2c(OC[C@H]3NC(=O)[C@H](F)[C@H]3C)nccc2cc1C(N)=O , what is its reported Papp A→B?
10.4

# lookup: Papp A→B of CC(C)Oc1cc2c(O[C@@H]3CCCNC3)ccnc2cc1C(N)=O
2.8

Fill in: Papp A→B of COc1cc2c(OC[C@@H]3CCC(=O)N3)nccc2cc1C(N)=O is ___
9.9

Given the molecule COc1cc2c(OC[C@H]3NC(=O)[C@@H]4[C@@H](C)[C@@H]43)nccc2cc1C(N)=O , what is its reported Papp A→B?
13.5

I would be grateful if you could share the reported Papp A→B for CC(C)Oc1cc2c(O[C@@H]3CCCNC3)nccc2cc1C(N)=O .
11.4

Look at this molecule and give its reported Papp A→B. COc1cc2c(OC[C@@H]3CCC(=O)N3)ccnc2cc1C(N)=O
5.8

Would you mind telling me what Papp A→B value was observed for COc1cc2c(OC[C@H]3NC(=O)[C@@H]4C[C@H]34)nccc2cc1C(N)=O ?
11.7

So what's the measured Papp A→B for this one? COc1cc2c(OC[C@@H]3CCC(=O)N3)cccc2cc1C(N)=O
14.2

----------
I'd be grateful if you could share measured Papp A→B for these entries.
# procedure-summary: Apparent permeability in RRCK cells from apical to basolateral side
# Type: ADME, cell-based, Canis lupus familiaris, MDCKII-LE
# condition-parameters: dog, MDCK
Hi! Could you send only the number? It should be in ×10⁻⁶ cm/s, unit omitted.

Quick one: Papp A→B for COc1cc2c(OC[C@H]3NC(=O)[C@H](C)[C@H]3C)nccc2cc1C(N)=O ?
13.9

Recorded Papp A→B for COC[C@@H]1CC(=O)N[C@@H]1COc1nccc2cc(C(N)=O)c(OC)cc12 , please?
12.5

Please report the recorded Papp A→B for CCOc1cc2c(OC[C@@H]3CCC(=O)N3)nccc2cc1C(N)=O .
10.6

What does the record list as Papp A→B for CCC[C@@H]1CC(=O)N[C@@H]1COc1nccc2cc(C(N)=O)c(OC)cc12 ?
18.9

Report Papp A→B for CC(C)Oc1cc2c(OC[C@H]3CCC(=O)N3)nccc2cc1C(N)=O please.
10.5

Name the reported Papp A→B value associated with the molecule COc1cc2c(OC[C@H]3NC(=O)[C@@H](C)[C@H]3C)nccc2cc1C(N)=O
15.8
